The values you see were collected from patent US20100240683A1.

- assayed system: CYP2C8 (Homo sapiens)
- Sequence (P10632 whole entry): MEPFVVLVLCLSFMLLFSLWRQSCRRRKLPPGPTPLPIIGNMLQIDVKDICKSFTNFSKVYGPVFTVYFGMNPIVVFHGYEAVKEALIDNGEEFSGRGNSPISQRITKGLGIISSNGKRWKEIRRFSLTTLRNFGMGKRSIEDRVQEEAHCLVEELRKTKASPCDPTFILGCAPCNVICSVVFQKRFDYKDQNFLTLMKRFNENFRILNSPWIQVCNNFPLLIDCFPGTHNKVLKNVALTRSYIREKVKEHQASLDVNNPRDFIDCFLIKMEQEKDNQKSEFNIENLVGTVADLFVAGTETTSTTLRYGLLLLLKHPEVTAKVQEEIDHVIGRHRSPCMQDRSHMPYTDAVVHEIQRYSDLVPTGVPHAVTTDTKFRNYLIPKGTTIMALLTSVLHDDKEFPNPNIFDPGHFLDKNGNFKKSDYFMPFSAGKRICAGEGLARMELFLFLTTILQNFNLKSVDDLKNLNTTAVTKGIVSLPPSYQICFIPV
- protocol summary: in vitro
- conditions: % Inhibition (set 1)
observed property: inhibition at 100 μM (%)

>>> reading("CC(C)(CCCCCCCCCCC(C)(C)CC(=O)O)CC(=O)O")
46
>>> reading("CC(C)(CCCCCCCCCCCCC(C)(C)C(=O)O)C(=O)O")
43
>>> reading("O=c1c(O)c(-c2ccc(O)c(O)c2)oc2cc(O)cc(O)c12 [Quercetin, reference compound]")
100

---

Measured inhibition at 33.33 μM by item
- assayed system: UniProt:P10632
- protocol summary: in vitro
- conditions: % Inhibition (set 1)
observed property: inhibition at 33.33 μM (%)

>>> reading("CC(C)(CCCCCCCCCCC(C)(C)CC(=O)O)CC(=O)O")
22
>>> reading("CC(C)(CCCCCCCCCCCCC(C)(C)C(=O)O)C(=O)O")
23
>>> reading("O=c1c(O)c(-c2ccc(O)c(O)c2)oc2cc(O)cc(O)c12 [Quercetin, reference compound]")
100
